- Test system: 192522-019-R-J2-PDC complex tumor spheroid viability
- test.summary: Anticancer human tumor 192522-019-R-J2-PDC patient-derived colon adenocarcinoma cell line growth inhibition [POLQ]
- reported.conditions: second compound 0.316 µM; first compound 3.16 µM; stronger effect = lower value
outcome.measure: viability, T/C (%)
Record the value in %, omitting the unit from your answer.

>  <compound>
C=CC(=O)N1CCN(c2nc(=O)n(-c3c(C)ccnc3C(C)C)c3nc(-c4c(O)cccc4F)c(F)cc23)C(C)C1 (centres undefined) + Nc1ccc(C#CCN(C(=O)Cc2ncc(C(F)(F)F)cc2C(F)(F)F)c2ccc(F)cc2)nn1

>  <viability, T/C (%)>
116

$$$$

Noted for C=CC(=O)N1CCN(c2nc(=O)n(-c3c(C)ccnc3C(C)C)c3nc(-c4c(O)cccc4F)c(F)cc23)C(C)C1 (centres undefined) + Cc1cccc(N(C)C(=O)C2C(O)CCN2c2nc(C)cc(C(F)(F)F)c2C#N)c1 : its viability, T/C reads 101

Noted for CC1COCCN1c1cc(C2(S(C)(=N)=O)CC2)nc(-c2ccnc3[nH]ccc23)n1 (centres undefined) + Nc1ccc(C#CCN(C(=O)Cc2ncc(C(F)(F)F)cc2C(F)(F)F)c2ccc(F)cc2)nn1 : its viability, T/C reads 67.9

Noted for CCCS(=O)(=O)Nc1ccc(F)c(C(=O)c2c[nH]c3ncc(-c4ccc(Cl)cc4)cc23)c1F + Nc1ccc(C#CCN(C(=O)Cc2ncc(C(F)(F)F)cc2C(F)(F)F)c2ccc(F)cc2)nn1 : its viability, T/C reads 101

---

Reported pIC50 is given for each of the following molecules.
- System: 192522-019-R-J2-PDC complex tumor spheroid viability
- test.summary: Anticancer human tumor 192522-019-R-J2-PDC cell line growth inhibition [POLQ];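 further: spheroids exposed to drugs for seven days before reading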
- reported.conditions: curve of first compound; second compound 3.16 µM
pIC50: −log10 of the molar value.

As a guide, the following entries are already answered.
>  <molecule>
CNCc1ccc(-c2[nH]c3cc(F)cc4c3c2CCNC4=O)cc1 + Nc1ccc(C#CCN(C(=O)Cc2ncc(C(F)(F)F)cc2C(F)(F)F)c2ccc(F)cc2)nn1

>  <measurement.target>
192522-019-R-J2-PDC complex tumor spheroid viability

>  <pIC50>
< 5.00

$$$$
>  <molecule>
COc1cc(C2c3cc4c(cc3C(OC3OC5COC(C)OC5C(O)C3O)C3COC(=O)C23)OCO4)cc(OC)c1O (stereo not given) + Nc1ccc(C#CCN(C(=O)Cc2ncc(C(F)(F)F)cc2C(F)(F)F)c2ccc(F)cc2)nn1

>  <measurement.target>
192522-019-R-J2-PDC complex tumor spheroid viability

>  <pIC50>
< 5.00

$$$$
>  <molecule>
CCc1cc2c(N3CCc4c(cc(Cn5ccnc5)cc4-c4cn(C)nc4C(F)(F)F)C3=O)cc(C)nc2c(OC)n1 + Cc1cccc(N(C)C(=O)C2C(O)CCN2c2nc(C)cc(C(F)(F)F)c2C#N)c1

>  <measurement.target>
192522-019-R-J2-PDC complex tumor spheroid viability

>  <pIC50>
< 5.00

$$$$

Here's the next entry for you.
Noted for Nc1ccn(C2OC(CO)C(O)C2(F)F)c(=O)n1 (stereo not given) + Cc1cccc(N(C)C(=O)C2C(O)CCN2c2nc(C)cc(C(F)(F)F)c2C#N)c1 : its pIC50 reads < 5.00

---

- System: 192522-019-R-J2-PDC complex tumor spheroid viability
- test.summary: Anticancer human tumor 192522-019-R-J2-PDC cell line growth inhibition [POLQ];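 further: spheroids exposed to drugs for seven days before reading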;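 on viability, T/C: 100% = DMSO vehicle control viability in luminescence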
- reported.conditions: second compound 0.0316 µM; first compound 0.1 µM; stronger effect = lower value
Reported viability, T/C is given for each of the following compounds.
Record the value in %, omitting the unit from your answer.

As a guide, the following entries are already answered.
>  <compound>
C#Cc1c(F)ccc2cc(O)cc(-c3ncc4c(N5CC6CCC(C5)N6)nc(OCC56CCCN5CC(F)C6)nc4c3F)c12 (stereo not drawn) + Nc1ccc(C#CCN(C(=O)Cc2ncc(C(F)(F)F)cc2C(F)(F)F)c2ccc(F)cc2)nn1

>  <outcome.measure>
viability, T/C

>  <value>
88.8

$$$$
>  <compound>
CCCS(=O)(=O)Nc1ccc(F)c(C(=O)c2c[nH]c3ncc(-c4ccc(Cl)cc4)cc23)c1F + Cc1cccc(N(C)C(=O)C2C(O)CCN2c2nc(C)cc(C(F)(F)F)c2C#N)c1

>  <outcome.measure>
viability, T/C

>  <value>
110

$$$$

Here's the next entry for you.
Noted for Cn1ncnc1[C@H]1c2n[nH]c(=O)c3cc(F)cc(c23)N[C@@H]1c1ccc(F)cc1 + Nc1ccc(C#CCN(C(=O)Cc2ncc(C(F)(F)F)cc2C(F)(F)F)c2ccc(F)cc2)nn1 : its viability, T/C reads 98.9

---

Reported viability, T/C is given for each of the following molecules.
- Test system: 192522-019-R-J2-PDC complex tumor spheroid viability
- test.summary: Anticancer human tumor 192522-019-R-J2-PDC cell line growth inhibition [POLQ];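 further: spheroids exposed to drugs for seven days before reading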;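 on viability, T/C: 100% = DMSO vehicle control viability in luminescence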
- reported.conditions: second compound 0.316 µM; first compound 0.1 µM; stronger effect = lower value
Record the value in %, omitting the unit from your answer.

>  <molecule>
Nc1ccn(C2OC(CO)C(O)C2(F)F)c(=O)n1 (stereo not given) + COC1C(OC(N)=O)C(O)C(Oc2ccc3c(O)c(NC(=O)c4ccc(O)c(CC=C(C)C)c4)c(=O)oc3c2C)OC1(C)C

>  <viability, T/C [%]>
79.7

$$$$
>  <molecule>
COc1cc2cc(C(=O)CCC(=O)O)sc2cc1OC + COC1C(OC(N)=O)C(O)C(Oc2ccc3c(O)c(NC(=O)c4ccc(O)c(CC=C(C)C)c4)c(=O)oc3c2C)OC1(C)C

>  <viability, T/C [%]>
88.7

$$$$
>  <molecule>
COc1cccc2c1C(=O)c1c(O)c3c(c(O)c1C2=O)CC(O)(C(=O)CO)CC3OC1CC(N)C(O)C(C)O1 (stereo not given) + Nc1ccc(C#CCN(C(=O)Cc2ncc(C(F)(F)F)cc2C(F)(F)F)c2ccc(F)cc2)nn1

>  <viability, T/C [%]>
89

$$$$

Noted for CCc1cc2c(N3CCc4c(cc(Cn5ccnc5)cc4-c4cn(C)nc4C(F)(F)F)C3=O)ccnc2c(OC)n1 + COC1C(OC(N)=O)C(O)C(Oc2ccc3c(O)c(NC(=O)c4ccc(O)c(CC=C(C)C)c4)c(=O)oc3c2C)OC1(C)C : its viability, T/C reads 93.7

Noted for CC1COCCN1c1cc(-c2ccnn2C)c2ccnc(-c3ccn[nH]3)c2n1 (stereo not given) + Nc1ccc(C#CCN(C(=O)Cc2ncc(C(F)(F)F)cc2C(F)(F)F)c2ccc(F)cc2)nn1 : its viability, T/C reads 93.5

---

Reported pIC50 is given for each of the following molecules.
- Test system: 192522-019-R-J2-PDC complex tumor spheroid viability
- test.summary: Anticancer human tumor 192522-019-R-J2-PDC cell line growth inhibition [POLQ];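 further: spheroids exposed to drugs for seven days before reading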
- reported.conditions: curve of first compound; second compound 3.16 µM
pIC50: −log10 of the molar value.

As a guide, the following entries are already answered.
>  <molecule>
CC(=O)O[C@H]1C(=O)[C@@]2(C)[C@H]([C@H](OC(=O)c3ccccc3)[C@]3(O)C[C@H](OC(=O)[C@H](O)[C@@H](NC(=O)c4ccccc4)c4ccccc4)C(C)=C1C3(C)C)[C@]1(OC(C)=O)CO[C@@H]1C[C@@H]2O + Nc1ccc(C#CCN(C(=O)Cc2ncc(C(F)(F)F)cc2C(F)(F)F)c2ccc(F)cc2)nn1

>  <outcome.measure>
pIC50

>  <value>
< 5.52

$$$$
>  <molecule>
CC(C)n1c(=O)n(C)c2cnc3cc(F)c(-c4ccc(OCCCN5CCCCC5)nc4)cc3c21 + COC1C(OC(N)=O)C(O)C(Oc2ccc3c(O)c(NC(=O)c4ccc(O)c(CC=C(C)C)c4)c(=O)oc3c2C)OC1(C)C

>  <outcome.measure>
pIC50

>  <value>
< 5.00

$$$$

Noted for CC[C@@]1(O)C(=O)OCc2c1cc1n(c2=O)Cc2cc3c(CN(C)C)c(O)ccc3nc2-1 + COC1C(OC(N)=O)C(O)C(Oc2ccc3c(O)c(NC(=O)c4ccc(O)c(CC=C(C)C)c4)c(=O)oc3c2C)OC1(C)C : its pIC50 reads < 7.00

Noted for O=c1[nH]cc(F)c(=O)[nH]1 + COC1C(OC(N)=O)C(O)C(Oc2ccc3c(O)c(NC(=O)c4ccc(O)c(CC=C(C)C)c4)c(=O)oc3c2C)OC1(C)C : its pIC50 reads < 5.00

Noted for COc1ccc([C@@H](O)c2cc(-c3ncnc4cc(N5CCOCC5)ccc34)c(F)cc2Cl)nn1 + Nc1ccc(C#CCN(C(=O)Cc2ncc(C(F)(F)F)cc2C(F)(F)F)c2ccc(F)cc2)nn1 : its pIC50 reads < 5.00

---

- Test system: 192522-019-R-J2-PDC complex tumor spheroid viability
- test.summary: Anticancer human tumor 192522-019-R-J2-PDC cell line growth inhibition [POLQ];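 further: spheroids exposed to drugs for seven days before reading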;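 on viability, T/C: 100% = DMSO vehicle control viability in luminescence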
- reported.conditions: second compound 10 µM; first compound 0.0316 µM; stronger effect = lower value
outcome.measure: viability, T/C (%)
Record the value in %, omitting the unit from your answer.

As a guide, the following entries are already answered.
>  <compound>
CC1COCCN1c1cc(-c2ccnn2C)c2ccnc(-c3ccn[nH]3)c2n1 (stereo unspecified) + Cc1cccc(N(C)C(=O)C2C(O)CCN2c2nc(C)cc(C(F)(F)F)c2C#N)c1

>  <viability, T/C / %>
94.9

$$$$
>  <compound>
C=CC(=O)N1CCN(c2nc(=O)n(-c3c(C)ccnc3C(C)C)c3nc(-c4c(O)cccc4F)c(F)cc23)C(C)C1 (stereo unspecified) + COC1C(OC(N)=O)C(O)C(Oc2ccc3c(O)c(NC(=O)c4ccc(O)c(CC=C(C)C)c4)c(=O)oc3c2C)OC1(C)C

>  <viability, T/C / %>
104

$$$$
>  <compound>
COc1cccc(OCCCN)c1-c1cc(Nc2cnc(C#N)cn2)n[nH]1 + Cc1cccc(N(C)C(=O)C2C(O)CCN2c2nc(C)cc(C(F)(F)F)c2C#N)c1

>  <viability, T/C / %>
53

$$$$

Noted for CCCS(=O)(=O)Nc1ccc(F)c(C(=O)c2c[nH]c3ncc(-c4ccc(Cl)cc4)cc23)c1F + Cc1cccc(N(C)C(=O)C2C(O)CCN2c2nc(C)cc(C(F)(F)F)c2C#N)c1 : its viability, T/C reads 110

Noted for CC1COCCN1c1cc(C2(S(C)(=N)=O)CC2)nc(-c2ccnc3[nH]ccc23)n1 (stereo unspecified) + Cc1cccc(N(C)C(=O)C2C(O)CCN2c2nc(C)cc(C(F)(F)F)c2C#N)c1 : its viability, T/C reads 95.5

Noted for C#Cc1c(F)ccc2cc(O)cc(-c3ncc4c(N5CC6CCC(C5)N6)nc(OCC56CCCN5CC(F)C6)nc4c3F)c12 (stereo unspecified) + Cc1cccc(N(C)C(=O)C2C(O)CCN2c2nc(C)cc(C(F)(F)F)c2C#N)c1 : its viability, T/C reads 117

Noted for CCc1cc2c(N3CCc4c(cc(Cn5ccnc5)cc4-c4cn(C)nc4C(F)(F)F)C3=O)cc(C)nc2c(OC)n1 + Cc1cccc(N(C)C(=O)C2C(O)CCN2c2nc(C)cc(C(F)(F)F)c2C#N)c1 : its viability, T/C reads 110

Noted for CCc1c2c(nc3ccc(O)cc13)-c1cc3c(c(=O)n1C2)COC(=O)[C@]3(O)CC + COC1C(OC(N)=O)C(O)C(Oc2ccc3c(O)c(NC(=O)c4ccc(O)c(CC=C(C)C)c4)c(=O)oc3c2C)OC1(C)C : its viability, T/C reads 59.4

Noted for COc1cc2cc(C(=O)CCC(=O)O)sc2cc1OC + Cc1cccc(N(C)C(=O)C2C(O)CCN2c2nc(C)cc(C(F)(F)F)c2C#N)c1 : its viability, T/C reads 103

Noted for C=CCn1c(=O)c2cnc(Nc3ccc(N4CCN(C)CC4)cc3)nc2n1-c1cccc(C(C)(C)O)n1 + COC1C(OC(N)=O)C(O)C(Oc2ccc3c(O)c(NC(=O)c4ccc(O)c(CC=C(C)C)c4)c(=O)oc3c2C)OC1(C)C : its viability, T/C reads 102

Noted for CC1COCCN1c1cc(C2(O)CC3CCC(C2)O3)c2cnn(-c3ccn[nH]3)c2n1 (stereo unspecified) + Cc1cccc(N(C)C(=O)C2C(O)CCN2c2nc(C)cc(C(F)(F)F)c2C#N)c1 : its viability, T/C reads 102
